Origin of measurements: patent EP0593348A1

- Tested on: souris ob/ob
- MEASUREMENT DESCRIPTION: Hypoglycaemic activity in a non-insulin-dependent diabetes (NIDDM) model, ob/ob mice
- Format: in vivo
- DETAILS: oral, 4 days, base 100, reached at the dose given

# COMPOUND, Pouvoir hypoglycémiant
measured = [
    ("COc1ccc(Cl)cc1C(=O)NCCc1ccc(CC2SC(=O)NC2=O)cc1 (stereo not drawn) [Exemple 1]", 100),
    ("CN(C)c1ccccc1C(=O)NCCc1ccc(CC2SC(=O)NC2=O)cc1 (racemic) [Exemple 28]", 100),
    ("COc1ccc(Cl)cc1C(=O)NCc1ccc(CC2SC(=O)NC2=O)cc1 (racemic) [Exemple 36]", 100),
]

* * *

- System: rats Zucker Fa/Fa mâles
- MEASUREMENT DESCRIPTION: Model of reduced glucose tolerance with hyperinsulinaemia and hyperlipaemia, male Zucker Fa/Fa rats
- Assay type: in vivo
- DETAILS: plasma free fatty acids, 5 mg/kg/jour oral for 10 days, control = 100
Parameter AGL (%): see the listing below.
REPORTED METRIC: AGL (%)

# COMPOUND, REPORTED METRIC, RESULT
records = [
    ("CN(C)c1ccccc1C(=O)NCCc1ccc(CC2SC(=O)NC2=O)cc1 (racemic)", "AGL (%)", "110%"),
    ("O=C1NC(=O)C(Cc2ccc(CCN3C(=O)c4ccccc4C3=O)cc2)S1 (stereo not shown)", "AGL (%)", "108%"),
    ("CCc1ccc(CCOc2ccc(CC3SC(=O)NC3=O)cc2)nc1 (stereo not shown) [Pioglitazone, reference compound]", "AGL (%)", "57%"),
    ("COc1ccc(Cl)cc1C(=O)NCCc1ccc(CC2SC(=O)NC2=O)cc1 (stereo not shown)", "AGL (%)", "83%"),
]

* * *

- Tested on: rats Zucker Fa/Fa mâles
- MEASUREMENT DESCRIPTION: Model of reduced glucose tolerance with hyperinsulinaemia and hyperlipaemia, male Zucker Fa/Fa rats
- Type: in vivo
- DETAILS: 5 mg/kg/jour oral for 10 days, control = +100
REPORTED METRIC: Poids ΔP% J₁₁-J₁

# COMPOUND, TARGET OR SYSTEM, RESULT
data = [
    ("COc1ccc(Cl)cc1C(=O)NCCc1ccc(CC2SC(=O)NC2=O)cc1 (stereo not shown)", "rats Zucker Fa/Fa mâles", "+112%"),
    ("O=C1NC(=O)C(Cc2ccc(CCN3C(=O)c4ccccc4C3=O)cc2)S1 (stereo not shown)", "rats Zucker Fa/Fa mâles", "+132%"),
    ("CCc1ccc(CCOc2ccc(CC3SC(=O)NC3=O)cc2)nc1 (stereo not shown) [Pioglitazone, reference compound]", "rats Zucker Fa/Fa mâles", "+320%"),
    ("CN(C)c1ccccc1C(=O)NCCc1ccc(CC2SC(=O)NC2=O)cc1 (racemic)", "rats Zucker Fa/Fa mâles", "+103%"),
]

* * *

- Test system: rats Zucker Fa/Fa mâles
- MEASUREMENT DESCRIPTION: Model of reduced glucose tolerance with hyperinsulinaemia and hyperlipaemia, male Zucker Fa/Fa rats
- Assay type: in vivo
- DETAILS: plasma triglycerides, 5 mg/kg/jour oral for 10 days, control = 100
Parameter TG (%): see the listing below.
REPORTED METRIC: TG (%)

# COMPOUND, REPORTED METRIC, RESULT
rows = [
    ("COc1ccc(Cl)cc1C(=O)NCCc1ccc(CC2SC(=O)NC2=O)cc1 (stereo not shown)", "TG (%)", "94%"),
    ("CN(C)c1ccccc1C(=O)NCCc1ccc(CC2SC(=O)NC2=O)cc1 (racemic)", "TG (%)", "89%"),
    ("O=C1NC(=O)C(Cc2ccc(CCN3C(=O)c4ccccc4C3=O)cc2)S1 (stereo not shown)", "TG (%)", "78%"),
    ("CCc1ccc(CCOc2ccc(CC3SC(=O)NC3=O)cc2)nc1 (stereo not shown) [Pioglitazone, reference compound]", "TG (%)", "35%"),
]
